Recorded pIC50 for the following molecules
# Test system: COLO-320-HSR;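 also: growth inhibition of COLO-320-HSR cells, determined with a cell viability assay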
# test: cells
# Type: functional, cell-based
# testSettings: Homo sapiens
# Description: SANGER: Inhibition of human COLO-320-HSR cell growth in a cell viability assay.
pIC50: −log10 of the molar value.

Worked set:
molecule	pIC50
CCc1nc(N)nc(N)c1-c1ccc(Cl)cc1	5.40
O=C(/C=C/c1ccccc1)NC(NC(=S)Nc1cccc2cccnc12)C(Cl)(Cl)Cl (stereo not drawn)	< 4.80
COc1cc([C@@H]2c3cc4c(cc3[C@@H](O[C@@H]3O[C@@H]5CO[C@@H](C)O[C@H]5[C@H](O)[C@H]3O)[C@H]3COC(=O)[C@H]23)OCO4)cc(OC)c1O [ETOPOSIDE]	5.01

Quick one: pIC50 of CN1CCN(CCOc2cc(OC3CCOCC3)c3c(Nc4c(Cl)ccc5c4OCO5)ncnc3c2)CC1 ?
< 5.70

Quick one: pIC50 of C=CCc1cccc(/C=N/NC(=O)CN2CCN(Cc3ccccc3)CC2)c1O ?
< 5.59

Quick one: pIC50 of O=C(c1cc(Cc2n[nH]c(=O)c3ccccc23)ccc1F)N1CCN(C(=O)C2CC2)CC1 ?
< 5.30

Quick one: pIC50 of O=C1N=C(NCc2cccs2)S/C1=C\c1ccc2ncccc2c1 ?
< 5.30

Quick one: pIC50 of COc1cc(F)c(F)c(Nc2ccc(I)cc2F)c1NS(=O)(=O)C1(CC(O)CO)CC1 (stereo not drawn) ?
< 5.30
